Reported Cytotoxicity LC50/GI50 Hela cells is given for each of the following compounds.
- System: HELA cells (Acc57)
- ASSAY DETAILS: Cytotoxicity assay (MTT reduction), HELA cells
- Format: cell-based
- CONDITION PARAMETERS: Hela cells
- Description: The cytotoxicity of the peptides to HELA cells (Acc57) and COS-7 cells (CRL-1651) was determined using the MTT reduction assay [see ref. 2 and 3, below]. […] At this point, time zero (Tz) was determined by MTT reduction (see below). […] The absorbance at 595 nm of the solubilized product was measured (OD595peptide). For each concentration averages were calculated from triplicates. […]
Where a SMILES comes first, the peptide text is derived from it.
Numbers only; they are read as µM.

Use these answered entries as a reference point.
{"COMPOUND": "CCCCCCCC[C@@H]1NC(=O)[C@H](CO)NC(=O)[C@H](C)NC(=O)[C@H]([C@@H](C)O)NC(=O)[C@@H]2CSSC[C@H](NC(=O)[C@H](CCC(N)=O)NC(=O)[C@@H]3CCCN3C(=O)[C@@H]3CCCN3C1=O)C(=O)N[C@@H](Cc1ccc(O)cc1)C(=O)N1CCC[C@@H]1C(=O)N1CCC[C@H]1C(=O)N[C@@H](CCCC)C(=O)N2 [Ex. 81] (HELM PEPTIDE1{[Nle].C.T.A.S.[CCCCCCCC[C@H](N[*:1])C(=O)[*:2]].P.P.Q.C.Y.[dP].P}$PEPTIDE1,PEPTIDE1,2:R3-10:R3|PEPTIDE1,PEPTIDE1,1:R1-13:R2$$$V2.0)", "Cytotoxicity LC50/GI50 Hela cells / µM": 58}
{"COMPOUND": "CCCC[C@@H]1NC(=O)[C@@H]2CCCN2C(=O)[C@H]2CCCN2C(=O)[C@H](Cc2ccc(O)cc2)NC(=O)[C@@H]2CSSC[C@H](NC1=O)C(=O)N[C@@H]([C@@H](C)O)C(=O)N[C@@H](C)C(=O)N[C@@H](CO)C(=O)N[C@@H](C1CCCCC1)C(=O)N1CCC[C@H]1C(=O)N1CCC[C@H]1C(=O)N[C@@H](CCC(N)=O)C(=O)N2 [Ex. 84] (HELM PEPTIDE1{[Nle].C.T.A.S.[O=C([C@@H](N[*:1])C1CCCCC1)[*:2]].P.P.Q.C.Y.[dP].P}$PEPTIDE1,PEPTIDE1,2:R3-10:R3|PEPTIDE1,PEPTIDE1,1:R1-13:R2$$$V2.0)", "Cytotoxicity LC50/GI50 Hela cells / µM": 9}
{"COMPOUND": "CCCC[C@@H]1NC(=O)[C@@H]2CCCN2C(=O)[C@H]2CCCN2C(=O)[C@H](CO)NC(=O)[C@@H]2CSSC[C@H](NC1=O)C(=O)N[C@@H]([C@@H](C)O)C(=O)N[C@@H](C)C(=O)N[C@@H](CO)C(=O)N[C@@H]([C@@H](C)CC)C(=O)N1CCC[C@H]1C(=O)N1CCC[C@H]1C(=O)N[C@@H](CCC(N)=O)C(=O)N2 [Ex. 93] (HELM PEPTIDE1{[Nle].C.T.A.S.I.P.P.Q.C.S.[dP].P}$PEPTIDE1,PEPTIDE1,2:R3-10:R3|PEPTIDE1,PEPTIDE1,1:R1-13:R2$$$V2.0)", "Cytotoxicity LC50/GI50 Hela cells / µM": 100}

Then this compound:
Form field - read-out: Cytotoxicity LC50/GI50 Hela cells; system: HELA cells (Acc57); submitted item: CC[C@H](C)[C@@H]1NC(=O)[C@H](C)NC(=O)[C@@H]2CCCN2C(=O)[C@H](CC(=O)O)NC(=O)[C@H](CO)NC(=O)[C@H](CCCCN)NC(=O)[C@H]([C@@H](C)O)NC(=O)[C@@H]2CSSC[C@H](NC1=O)C(=O)N[C@@H](CCCNC(=N)N)C(=O)N1CCC[C@@H]1C(=O)N1CCC[C@H]1C(=O)N[C@@H]([C@@H](C)CC)C(=O)N2 [Ex. 52] (HELM PEPTIDE1{I.C.T.K.S.D.P.A.I.C.R.[dP].P}$PEPTIDE1,PEPTIDE1,2:R3-10:R3|PEPTIDE1,PEPTIDE1,1:R1-13:R2$$$V2.0)
100
